Test system: UO-31 renal
MEASUREMENT PROTOCOL: NCI-60 one-dose screen, 48 h (100 = growth as untreated, 0 = no growth, -100 = all killed)
CONDITION: 10 µM unless noted
The panel holds about 83,000 compounds, 20% with a hit somewhere; the sample as a whole holds those more often.
Assignment: determine reported growth for the given molecules.
Kindly answer with a numeric value in %, unit omitted.

get_value(item= CC(C)(C)CC(C)(C)c1ccc(OCCOCCSC(=N)N)cc1 , readout=growth) returns 53.2

get_value(item= NC(=Nc1nc(-c2ccccn2)cc2ccccc12)c1ccccn1 , readout=growth) returns 2.9

get_value(item= c1ccc(-c2cc3cc4ccccc4cn3c2)cc1 , readout=growth) returns 60.9

get_value(item= CC(CSc1n[nH]c(=S)s1)c1ccccc1 (stereo not given) , readout=growth) returns 77.4

get_value(item= [Cl-].[Rh+3].c1ccc(-c2ccnc3c2ccc2c(-c4ccccc4)ccnc23)cc1.c1ccc(-c2ccnc3c2ccc2c(-c4ccccc4)ccnc23)cc1.c1ccc(-c2ccnc3c2ccc2c(-c4ccccc4)ccnc23)cc1 , readout=growth) returns 51.4

get_value(item= CC1C(c2ccccc2)OCCN1C(=S)Nc1ccc(S(=O)(=O)N2CCCCC2)cc1 (stereo not given) , readout=growth) returns 94.5

get_value(item= OC(c1cc(C23CC4CC(CC(C4)C2)C3)nc2c(Cl)cc(Cl)cc12)C1CCCCN1 (stereo not given) , readout=growth) returns -83.3

get_value(item= NC(=S)N/N=C\c1nccc2c(C(F)(F)F)cccc12 , readout=growth) returns -35.2

get_value(item= CC1(C)OCC(COC(c2ccccc2)(c2ccccc2)c2ccccc2)O1 (stereo not given) , readout=growth) returns 85.7

get_value(item= Cc1ccc(NC2=CC(=O)C(=O)c3ccccc32)cc1 , readout=growth) returns -18.4
